Tested on: COLO 205
measurementNotes: NCI tumour cell line growth inhibition, 48 h
Calls of active or inactive are those of the source. Rule as the data show it: active = GI50 up to about 1.1 µM and inactive = higher.
assayMetric: GI50

Fill in: GI50 on COLO 205, entry O=c1cc(CC(O)(C(F)(F)Cl)C(F)(F)Cl)[nH]n1-c1ccccc1
> 100 µM (inactive)

System COLO 205. Read-out GI50. Item CC12CC[C@@H](C(C)(C)O)C1[C@@H](O)CC1(C)C2CCC2[C@@]3(C)CC[C@H](O)C(C)(C)C3C(O)C[C@]21C (stereo not given in full) . Report value.
15.6 µM (inactive)

Recall the reported GI50 of C[n+]1[n-]o/c(=N\N=O)c1-c1cc(-c2/c(=N/N=O)o[n-][n+]2C)cc(-c2/c(=N\N=O)o[n-][n+]2C)c1 when tested on COLO 205.
> 100 µM (inactive)

Tell me GI50 of CC(=O)Oc1c(OC(C)C)c(C)c(O[Si](C(C)C)(C(C)C)C(C)C)c2[nH]c3ccccc3c12 when tested on COLO 205.
> 100 µM (inactive)

Quote COLO 205 GI50 for entry O=C(Nc1ccc(I)cc1C(=O)NCCO)c1cccs1 .
> 100 µM (inactive)

Determine reported GI50 for CC1Cc2cc(O)ccc2C2[C@@H]1C1CC[C@H](O)[C@@]1(C)C[C@@H]2O[N+](=O)[O-] (stereo not given in full) ; test system: COLO 205.
22.3 µM (inactive)

GET GI50 where system = COLO 205 and item = COc1c2ccoc2c(S(=O)(=O)Nc2ccc(Cl)cc2)c2oc(C)cc(=O)c12
> 100 µM (inactive)

Specify the recorded GI50 for FC(F)(F)C1(Cl)C(c2ccccc2)=C1c1ccccc1 , system: COLO 205.
16.6 µM (inactive)

Given CC(=O)Nc1ccccc1[S+]([O-])c1ccccc1 (stereo not given) , report its GI50 on COLO 205.
> 100 µM (inactive)

# return GI50 of Nc1nc(N)c2c3c(cnc2n1)CC(c1ccccc1)CC3 (stereo not given) (system: COLO 205)
35 µM (inactive)
